Test system: 317291-083-R-J1-PDC complex spheroids, viability
Experiment: Anticancer human tumor 317291-083-R-J1-PDC patient-derived soft tissue sarcoma cell line growth inhibition [GQUAD]; active = viability on the fitted dose curve at most 10% of control; inactive = the rest
Settings: second compound 10 µM; first compound 0.316 µM
Just give me one of these, please: true = active, false = inactive

[[record]]
compound = "CC[C@@]1(O)C(=O)OCc2c1cc1n(c2=O)Cc2cc3c(CN(C)C)c(O)ccc3nc2-1 + Cc1cnc(CNC(=O)c2c(=O)c3ccc(N4CCCN(C)CC4)nc3n3c2sc2ccccc23)cn1"
assigned_class = "false"

[[record]]
compound = "O=C(NO)c1cnc(N2CCN(S(=O)(=O)c3ccc4ccccc4c3)CC2)nc1 + CN(C)c1ccc(Nc2c3ccc(NC(=O)CCN4CCCC4)cc3nc3cc(NC(=O)CCN4CCCC4)ccc23)cc1"
assigned_class = "true"

[[record]]
compound = "CC[C@@]1(O)C(=O)OCc2c1cc1n(c2=O)Cc2cc3c(CN(C)C)c(O)ccc3nc2-1 + Cc1[nH]c2ccc(F)cc2c1-c1nc2c3cccnc3c3ncccc3c2[nH]1"
assigned_class = "false"

[[record]]
compound = "O=c1[nH]cc(F)c(=O)[nH]1 + CN(C)c1ccc(Nc2c3ccc(NC(=O)CCN4CCCC4)cc3nc3cc(NC(=O)CCN4CCCC4)ccc23)cc1"
assigned_class = "true"


For C#Cc1c(F)ccc2cc(O)cc(-c3ncc4c(N5CC6CCC(C5)N6)nc(OCC56CCCN5CC(F)C6)nc4c3F)c12 (stereo not given) + Cc1cnc(CNC(=O)c2c(=O)c3ccc(N4CCCN(C)CC4)nc3n3c2sc2ccccc23)cn1 , what call appears in the results of this test?
false

====

System: 317291-083-R-J1-PDC complex spheroids, viability
Assay: Anticancer human tumor 317291-083-R-J1-PDC cell line growth inhibition [GQUAD]; active = viability on the fitted dose curve at most 10% of control; inactive = the rest;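 note: spheroids exposed to compounds for one week before readout; percent viability relative to DMSO vehicle wells taken as 100%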
Settings: second compound 10 µM; first compound 0.00999 µM
Just give me one of these, please: active, inactive

For CCc1c2c(nc3ccc(O)cc13)-c1cc3c(c(=O)n1C2)COC(=O)[C@]3(O)CC + CN(C)c1ccc(Nc2c3ccc(NC(=O)CCN4CCCC4)cc3nc3cc(NC(=O)CCN4CCCC4)ccc23)cc1 , what call appears in the results of this test?
active

For Cn1ncnc1[C@H]1c2n[nH]c(=O)c3cc(F)cc(c23)N[C@@H]1c1ccc(F)cc1 + Cc1[nH]c2ccc(F)cc2c1-c1nc2c3cccnc3c3ncccc3c2[nH]1 , what call appears in the results of this test?
inactive

For Cn1ncnc1[C@H]1c2n[nH]c(=O)c3cc(F)cc(c23)N[C@@H]1c1ccc(F)cc1 + CN(C)c1ccc(Nc2c3ccc(NC(=O)CCN4CCCC4)cc3nc3cc(NC(=O)CCN4CCCC4)ccc23)cc1 , what call appears in the results of this test?
active

====

Tested on: 317291-083-R-J1-PDC complex spheroids, viability
Assay: Anticancer human tumor 317291-083-R-J1-PDC cell line growth inhibition [GQUAD];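 note: spheroids exposed to compounds for one week before readout; percent viability relative to DMSO vehicle wells taken as 100%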
Details: second compound 0.0316 µM; first compound 3.16 µM; active compounds read low
measure name: viability, T/C (%)
Numeric only. Scale: %

Recorded results for 4 molecules are shown here.
[[record]]
molecule = "C=CCn1c(=O)c2cnc(Nc3ccc(N4CCN(C)CC4)cc3)nc2n1-c1cccc(C(C)(C)O)n1 + CN(C)c1ccc(Nc2c3ccc(NC(=O)CCN4CCCC4)cc3nc3cc(NC(=O)CCN4CCCC4)ccc23)cc1"
endpoint_result = 8.78

[[record]]
molecule = "CC1COCCN1c1cc(-c2ccnn2C)c2ccnc(-c3ccn[nH]3)c2n1 (stereo not given) + CN(C)c1ccc(Nc2c3ccc(NC(=O)CCN4CCCC4)cc3nc3cc(NC(=O)CCN4CCCC4)ccc23)cc1"
endpoint_result = 13.8

[[record]]
molecule = "C=CC(=O)N1CCN(c2nc(=O)n(-c3c(C)ccnc3C(C)C)c3nc(-c4c(O)cccc4F)c(F)cc23)C(C)C1 (stereo not given) + Cc1cnc(CNC(=O)c2c(=O)c3ccc(N4CCCN(C)CC4)nc3n3c2sc2ccccc23)cn1"
endpoint_result = 86.2

[[record]]
molecule = "CC1COCCN1c1cc(-c2ccnn2C)c2ccnc(-c3ccn[nH]3)c2n1 (stereo not given) + Cc1cnc(CNC(=O)c2c(=O)c3ccc(N4CCCN(C)CC4)nc3n3c2sc2ccccc23)cn1"
endpoint_result = 23.9


Let's switch to this molecule now.
Entry Nc1ccn(C2OC(CO)C(O)C2(F)F)c(=O)n1 (stereo not given) + CN(C)c1ccc(Nc2c3ccc(NC(=O)CCN4CCCC4)cc3nc3cc(NC(=O)CCN4CCCC4)ccc23)cc1 , system 317291-083-R-J1-PDC complex spheroids, viability: what viability, T/C was measured?
13.7

====

Test system: 317291-083-R-J1-PDC complex spheroids, viability
Test: Anticancer human tumor 317291-083-R-J1-PDC cell line growth inhibition [GQUAD];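 note: spheroids exposed to compounds for one week before readout; percent viability relative to DMSO vehicle wells taken as 100%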
Conditions: second compound 0.1 µM; first compound 3.16 µM; active compounds read low
Source text: DNA G-quadruplex Stabilizer Agents in Combinations in Complex Spheroids A high-throughput screen of multi-cell type tumor spheroids was designed to identify active combinations of DNA G-quadruplex stabilizer agents and targeted small molecules. […] Compounds. […] If the clinical Cmax for an agent had not been determined, the highest concentration tested was 10 microM. […]
Form field: viability, T/C (one value per entry).
Numeric only. Scale: %

Recorded results for 4 compounds are shown here.
[[record]]
compound = "CC(=O)O[C@H]1C(=O)[C@@]2(C)[C@H]([C@H](OC(=O)c3ccccc3)[C@]3(O)C[C@H](OC(=O)[C@H](O)[C@@H](NC(=O)c4ccccc4)c4ccccc4)C(C)=C1C3(C)C)[C@]1(OC(C)=O)CO[C@@H]1C[C@@H]2O + Cc1cnc(CNC(=O)c2c(=O)c3ccc(N4CCCN(C)CC4)nc3n3c2sc2ccccc23)cn1"
measure_name = "viability, T/C"
result_units = "%"
endpoint_result = 10

[[record]]
compound = "COc1cccc2c1C(=O)c1c(O)c3c(c(O)c1C2=O)CC(O)(C(=O)CO)CC3OC1CC(N)C(O)C(C)O1 (stereo not given) + Cc1[nH]c2ccc(F)cc2c1-c1nc2c3cccnc3c3ncccc3c2[nH]1"
measure_name = "viability, T/C"
result_units = "%"
endpoint_result = 1.29

[[record]]
compound = "Nc1ccn(C2OC(CO)C(O)C2(F)F)c(=O)n1 (stereo not given) + Cc1cnc(CNC(=O)c2c(=O)c3ccc(N4CCCN(C)CC4)nc3n3c2sc2ccccc23)cn1"
measure_name = "viability, T/C"
result_units = "%"
endpoint_result = 8.93

[[record]]
compound = "CCCS(=O)(=O)Nc1ccc(F)c(C(=O)c2c[nH]c3ncc(-c4ccc(Cl)cc4)cc23)c1F + Cc1cnc(CNC(=O)c2c(=O)c3ccc(N4CCCN(C)CC4)nc3n3c2sc2ccccc23)cn1"
measure_name = "viability, T/C"
result_units = "%"
endpoint_result = 59.4


Could you tell me which viability, T/C is on file for C=CC(=O)N1CCN(c2nc(=O)n(-c3c(C)ccnc3C(C)C)c3nc(-c4c(O)cccc4F)c(F)cc23)C(C)C1 (stereo not given) + Cc1[nH]c2ccc(F)cc2c1-c1nc2c3cccnc3c3ncccc3c2[nH]1 ?
93.4

Could you tell me which viability, T/C is on file for CC(C)(O)C1CCC(Nc2ccc3ncc(-c4cccc(C(F)(F)F)c4)n3n2)CC1 (stereo not given) + Cc1cnc(CNC(=O)c2c(=O)c3ccc(N4CCCN(C)CC4)nc3n3c2sc2ccccc23)cn1 ?
0.24

Could you tell me which viability, T/C is on file for COc1ncnc(C2CC2)c1-c1ncc2cnn(Cc3ccc(-c4nc(C(F)(F)F)cn4C(C)C)cc3)c2n1 + CN(C)c1ccc(Nc2c3ccc(NC(=O)CCN4CCCC4)cc3nc3cc(NC(=O)CCN4CCCC4)ccc23)cc1 ?
51.6

Could you tell me which viability, T/C is on file for C=CC(=O)N1CCN(c2nc(=O)n(-c3c(C)ccnc3C(C)C)c3nc(-c4c(O)cccc4F)c(F)cc23)C(C)C1 (stereo not given) + CN(C)c1ccc(Nc2c3ccc(NC(=O)CCN4CCCC4)cc3nc3cc(NC(=O)CCN4CCCC4)ccc23)cc1 ?
91.8

Could you tell me which viability, T/C is on file for O=c1[nH]cc(F)c(=O)[nH]1 + Cc1cnc(CNC(=O)c2c(=O)c3ccc(N4CCCN(C)CC4)nc3n3c2sc2ccccc23)cn1 ?
31.3

Could you tell me which viability, T/C is on file for C#Cc1c(F)ccc2cc(O)cc(-c3ncc4c(N5CC6CCC(C5)N6)nc(OCC56CCCN5CC(F)C6)nc4c3F)c12 (stereo not given) + CN(C)c1ccc(Nc2c3ccc(NC(=O)CCN4CCCC4)cc3nc3cc(NC(=O)CCN4CCCC4)ccc23)cc1 ?
64.8

====

System: 317291-083-R-J1-PDC complex spheroids, viability
Test: Anticancer human tumor 317291-083-R-J1-PDC cell line growth inhibition [GQUAD];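 note: spheroids exposed to compounds for one week before readout; percent viability relative to DMSO vehicle wells taken as 100%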
Conditions: second compound 10 µM; first compound 3.16 µM; active compounds read low
measure name: viability, T/C (%)
Numeric only. Scale: %

Could you tell me which viability, T/C is on file for O=c1[nH]cc(F)c(=O)[nH]1 + Cc1[nH]c2ccc(F)cc2c1-c1nc2c3cccnc3c3ncccc3c2[nH]1 ?
33

Could you tell me which viability, T/C is on file for Cc1cccc(N(C)C(=O)C2C(O)CCN2c2nc(C)cc(C(F)(F)F)c2C#N)c1 (stereo not given) + CN(C)c1ccc(Nc2c3ccc(NC(=O)CCN4CCCC4)cc3nc3cc(NC(=O)CCN4CCCC4)ccc23)cc1 ?
3.05

Could you tell me which viability, T/C is on file for CC(C)n1c(=O)n(C)c2cnc3cc(F)c(-c4ccc(OCCCN5CCCCC5)nc4)cc3c21 + Cc1cnc(CNC(=O)c2c(=O)c3ccc(N4CCCN(C)CC4)nc3n3c2sc2ccccc23)cn1 ?
25.5

Could you tell me which viability, T/C is on file for C#Cc1c(F)ccc2cc(O)cc(-c3ncc4c(N5CC6CCC(C5)N6)nc(OCC56CCCN5CC(F)C6)nc4c3F)c12 (stereo not given) + Cc1[nH]c2ccc(F)cc2c1-c1nc2c3cccnc3c3ncccc3c2[nH]1 ?
42

Could you tell me which viability, T/C is on file for COc1cccc2c1C(=O)c1c(O)c3c(c(O)c1C2=O)CC(O)(C(=O)CO)CC3OC1CC(N)C(O)C(C)O1 (stereo not given) + Cc1[nH]c2ccc(F)cc2c1-c1nc2c3cccnc3c3ncccc3c2[nH]1 ?
1.49
